- System: QGY-7703
- ASSAY_SUMMARY: CellTiter-Glo luminescent cell viability assay
- Format: cell-based
- STUDY_CONDITIONS: 120 h incubation, read-out: Anti-proliferative activity IC50 QGY-7703
pIC50: −log10 of the molar value.
The label depends only on pIC50: Yes if it is at least 5, No if it is smaller.

Example entries and their recorded answers appear below.
Cc1ccc(NC(=O)c2ccc([N+](=O)[O-])cc2)cc1Oc1nccc(-c2cccnc2)n1 : No
Cc1ccc(NC(=O)c2cccnc2)cc1Oc1nccc(-c2cccnc2)n1 : No
Cc1ccc(NC(=O)c2ccco2)cc1Oc1nccc(-c2cccc3ccccc23)n1 : No
Cc1ccc(NC(=O)c2ccc(Cl)cc2)cc1Oc1nccc(-c2ccco2)n1 : No
Cc1ccc(NC(=O)CO)cc1Oc1nccc(-c2cc3ccccc3o2)n1 : Yes
Cc1ccc(NC(=O)c2ccco2)cc1Oc1nccc(-c2cc3ccccc3n2C)n1 : No
CCC(=O)Nc1ccc(C)c(Oc2nccc(-c3cc4ccccc4n3C)n2)c1 : No
Cc1ccc(NC(=O)c2ccc(Cl)cc2)cc1Oc1nccc(-c2cccnc2)n1 : No
Cc1ccc(NC(=O)c2ccc(F)cc2)cc1Oc1nccc(-c2cccnc2)n1 : No
Cc1ccc(C(=O)Nc2ccc(C)c(Oc3nccc(-c4cccnc4)n3)c2)cc1 : No

Next molecule, please.
Kindly determine if pIC50 recorded for Cc1ccc(NC(=O)c2ccccc2)cc1Oc1nccc(-c2ccccc2)n1 is above or exactly 5. Yes

----------
- Tested on: SNU368
- ASSAY_SUMMARY: CellTiter-Glo luminescent cell viability assay
- Format: cell-based
- STUDY_CONDITIONS: 120 h incubation, read-out: Anti-proliferative activity IC50 SNU368
Would you mind telling me the reported IC50 of each entry?
Give bare numbers, in µM.

Cc1ccc(N)cc1Oc1nccc(-c2cccnc2)n1 : 85.7
Cc1ccc(NC(=O)CO)cc1Oc1nccc(-c2cc3ccccc3o2)n1 : 6.3
Cc1cccc(C(=O)Nc2ccc(C)c(Oc3nccc(-c4ccccc4)n3)c2)c1 : 12.9

Item Cc1ccc(NC(=O)c2cccc(Cl)c2)cc1Oc1nccc(-c2ccco2)n1 has what recorded IC50? 24

----------
- Test system: SMMC-7721
- ASSAY_SUMMARY: CellTiter-Glo luminescent cell viability assay
- Assay type: cell-based
- STUDY_CONDITIONS: 120 h incubation, read-out: Anti-proliferative activity IC50 SMMC-7721
QUANTITY_MEASURED: IC50 (µM)
Give bare numbers, in µM.

Known IC50 results, listed for orientation:
Cc1ccc(NC(=O)c2ccccc2)cc1Oc1nccc(-c2ccco2)n1 [D1] : 1.5
Cc1ccc(NC(=O)CO)cc1Oc1nccc(-c2cc3ccccc3o2)n1 : 2.5
COc1ccc(C(=O)Nc2ccc(C)c(Oc3nccc(-c4cccnc4)n3)c2)cc1 : 23.5

List IC50 for every entry below, keeping the order given.
1. Cc1ccc(NC(=O)c2ccoc2)cc1Oc1nccc(-c2cccc3ccccc23)n1
2. Cc1ccc(NC(=O)CN2CCOCC2)cc1Oc1nccc(-c2cc3ccccc3o2)n1

12
4.6

I'm hoping you can list IC50 for every compound here, please.
1. Cc1cccc(C(=O)Nc2ccc(C)c(Oc3nccc(-c4ccco4)n3)c2)c1
2. Cc1ccc(NC(=O)Cc2ccccc2)cc1Oc1nccc(-c2cccnc2)n1
3. Cc1ccc(NC(=O)c2cccc([N+](=O)[O-])c2)cc1Oc1nccc(-c2cccnc2)n1
4. Cc1ccc(NC(=O)c2ccc([N+](=O)[O-])cc2)cc1Oc1nccc(-c2cccnc2)n1
5. CC(=O)Nc1ccc(C)c(Oc2nccc(-c3cc4ccccc4n3C)n2)c1

1: 3.7; 2: 84.3; 3: 26.8; 4: 10.1; 5: 34.5

Give measured IC50 for every item shown.
1. Cc1ccc(NC(=O)c2ccncc2)cc1Oc1nccc(-c2ccccc2)n1
2. COc1ccc(C(=O)Nc2ccc(C)c(Oc3nccc(-c4ccccc4)n3)c2)cc1
3. Cc1ccc(NC(=O)c2cccc(Cl)c2)cc1Oc1nccc(-c2ccco2)n1
4. Cc1ccc(NC(=O)Cc2ccccc2)cc1Oc1nccc(-c2ccco2)n1 [D2]
5. Cc1ccc(NC(=O)c2ccc(Cl)cc2)cc1Oc1nccc(-c2ccccc2)n1
6. Cc1ccc(NC(=O)c2ccco2)cc1Oc1nccc(-c2cccc3ccccc23)n1
7. Cc1ccc(NC(=O)c2ccc(Cl)cc2)cc1Oc1nccc(-c2cccc3ccccc23)n1
8. Cc1ccc(NC(=O)c2ccc(Cl)cc2)cc1Oc1nccc(-c2cccnc2)n1

[8.8, 8.4, 12.4, 21.6, 9.7, 27.2, 14.3, 12.3]

Take each entry in turn and give its IC50.
1. CCC(=O)Nc1ccc(C)c(Oc2nccc(-c3cc4ccccc4n3C)n2)c1
2. Cc1ccc(NC(=O)Cc2ccccc2)cc1Oc1nccc(-c2ccccc2)n1
3. CCC(=O)Nc1ccc(C)c(Oc2nccc(-c3cc4ccccc4o3)n2)c1 [E2]
4. Cc1ccc(NC(=O)c2cccc(Cl)c2)cc1Oc1nccc(-c2cccnc2)n1

1: 27.9; 2: 11.7; 3: 0.2; 4: 27.2
